Test system: HTT mRNA
Experiment description: RT-qPCR splicing assay, HTT canonical junction (CJ) and alternative junction (AJ) mRNA
Assay type: cell-based, human
Condition: Homo sapiens, decrease in HTT canonical junction (CJ) mRNA, RT-qPCR; read-out: HTT CJ IC50
IC50 values, listed per item
Measured parameter: IC50

- Compound: "Cc1cn2nc(-c3cc(F)c4c(=O)n(C5CCN(C)CC5)ncc4c3)cc(C)c2n1 [Compound 539]"
  Endpoint result: "< 0.1 µM"
- Compound: "Cc1cn2nc(-c3ccc4c(=O)n(C5CCN(C)CC5)cnc4c3)cc(C)c2n1 [Compound 176]"
  Endpoint result: "1 to 10 µM"
- Compound: "COc1cccc(Oc2cc(-c3ccc4c(=O)n(C5CCNCC5)ccc4c3)nn3cc(C)nc23)c1 [Compound 547]"
  Endpoint result: "< 0.1 µM"
- Compound: "Cc1c(O)c(-c2ncc3c(=O)n(C4CCNCC4)cc(C)c3n2)cc2cn(C)nc12 [Compound 1191]"
  Endpoint result: "0.1 to 1 µM"
- Compound: "Cc1c(O)c(-c2ncc3c(=O)n([C@H]4CCN[C@@H](C)C4)ccc3n2)cc2cn(C)nc12 [Compound 1441]"
  Endpoint result: "0.1 to 1 µM"
- Compound: "Cc1cn2nc(-c3ccc4c(=O)n(C5CCNCC5)cc(C)c4c3)cc(C)c2n1 [Compound 381]"
  Endpoint result: "0.1 to 1 µM"
- Compound: "Cc1cn2cc(-c3ccc4c(=O)n(C5CCNCC5)ccc4n3)c(O)cc2n1 [Compound 1240]"
  Endpoint result: "> 10 µM"
- Compound: "Cc1cn2nc(-c3ccc4c(=O)n([C@H]5CCN[C@@H](C6CC6)C5)ncc4n3)cc(C)c2n1 [Compound 1550]"
  Endpoint result: "0.1 to 1 µM"
